Data credit: patent US8299056B2

target: Syk (Homo sapiens, UniProt P43405); construct: purchased Carna Biosciences; assay: Syk HTRF assay; type: biochemical; conditions: IC50 activity level, read-out: Activity Level
pIC50: −log10 of the molar value.
Parameter: pIC50. Scope: all listed entries.

compound="Fc1ccc(Nc2nc3cccc(NC4CCCNC4)n3n2)cc1 (stereo in doubt) [Example 462]" result="5.00 to 6.00"
compound="NCCn1cnc2ccc(-c3cccc4nc(Nc5ccccc5)nn34)cc21 [Example 515]" result="5.00 to 6.00"
compound="Cn1c(=O)[nH]c2cc(Nc3nc4cccc(N[C@H]5CC[C@@H](O)CC5)n4n3)ccc21 [Example 570]" result="6.60 to 11.30"
compound="Cc1n[nH]c2cc(Nc3nc4cccc(C(F)(F)C5COCCO5)n4n3)ccc12 (stereo not shown) [Example 563]" result="6.60 to 11.30"

I have this compound here, CC1(C)C(=O)Nc2cc(Nc3nc4cccc(C(F)(F)C5CCOCC5)n4n3)ccc21 [Example 536] , and I need its recorded pIC50. 6.60 to 11.30

I have this compound here, CC(C)Nc1cccc2nc(Nc3ccccc3)nn12 [Example 530] , and I need its recorded pIC50. 6.00 to 6.30

I have this compound here, CN(C)c1cc(-c2cccc3nc(Nc4ccccc4)nn23)ccn1 [Example 446] , and I need its recorded pIC50. 6.30 to 6.60

I have this compound here, Cn1ncc2cc(Nc3nc4cccc(NC5CCOCC5)n4n3)ccc21 [Example 551] , and I need its recorded pIC50. 6.60 to 11.30

====

biological target: Syk (Homo sapiens); construct: purchased Carna Biosciences; assay: Syk HTRF assay; format: biochemical; conditions: activity levels A-D, read-out: Activity Level (IC50 in the Syk HTRF assay)
pIC50: −log10 of the molar value.
Parameter: pIC50. Scope: all listed entries.

chemical_string=CN(c1cccc2nc(Nc3ccc(C(F)(F)F)cc3)nn12)[C@H]1CC[C@@H](O)CC1 observed_property=pIC50 result="5.00 to 6.00"

Turning to the following compound.
I have this compound here, O[C@H]1CC[C@@H](Nc2cccc3nc(Nc4ccncc4)nn23)CC1 , and I need its recorded pIC50. 5.00 to 6.00

====

biological target: Syk (Homo sapiens); construct: purchased Carna Biosciences; experiment: Syk HTRF assay; format: biochemical; conditions: activity levels A-D, read-out: Activity Level (IC50 in the Syk HTRF assay)
pIC50: −log10 of the molar value.
Parameter: pIC50. Scope: all listed entries.

Below, each entry is followed by its recorded pIC50 result.
compound=CNC(=O)c1cccc(Nc2nc3cccc(N[C@H]4CC[C@@H](O)CC4)n3n2)c1 observed_property=pIC50 result="6.30 to 6.60"
compound=N#Cc1ccc(Nc2nc3cccc(N[C@H]4CC[C@@H](O)CC4)n3n2)c(F)c1 observed_property=pIC50 result="5.00 to 6.00"
compound=Cc1cc(Nc2nc3cccc(N[C@H]4CC[C@@H](O)CC4)n3n2)cc(C)c1F observed_property=pIC50 result="6.60 to 11.30"
compound=CNC(=O)c1ccc(Nc2nc3cccc(-c4ccc5nc(C)[nH]c5c4)n3n2)cc1 observed_property=pIC50 result="6.60 to 11.30"
compound=CC(C)n1ncc2ccc(Nc3nc4cccc(N[C@H]5CC[C@@H](O)CC5)n4n3)cc21 observed_property=pIC50 result="6.60 to 11.30"

I have this compound here, Cc1cc(Nc2nc3cccc(CN4CCNC(=O)C4)n3n2)ccc1F , and I need its recorded pIC50. 6.30 to 6.60

I have this compound here, O[C@H]1CC[C@@H](Nc2cccc3nc(Nc4ccnc(NCCN5CCCC5)c4)nn23)CC1 , and I need its recorded pIC50. 6.60 to 11.30

I have this compound here, C[C@@H](CO)Nc1cccc2nc(Nc3ccc(C(F)(F)F)cc3)nn12 , and I need its recorded pIC50. 6.00 to 6.30

I have this compound here, N#Cc1cc(Nc2nc3cccc(N[C@H]4CC[C@@H](O)CC4)n3n2)ccn1 , and I need its recorded pIC50. 6.00 to 6.30

I have this compound here, CC(C)Nc1cccc2nc(Nc3ccc(C(F)(F)F)cc3)nn12 , and I need its recorded pIC50. 5.00 to 6.00

I have this compound here, CNC(=O)c1ccc(Nc2nc3cccc(CC4CCC(N)CC4)n3n2)cc1 (centres unmarked) , and I need its recorded pIC50. 6.60 to 11.30

I have this compound here, O[C@H]1CC[C@@H](Nc2cccc3nc(Nc4ccc(F)cc4)nn23)CC1 , and I need its recorded pIC50. 6.60 to 11.30

I have this compound here, CCc1n[nH]c2cc(Nc3nc4cccc(N[C@H]5CC[C@@H](O)CC5)n4n3)ccc12 , and I need its recorded pIC50. 6.60 to 11.30

I have this compound here, O[C@@H]1CCN(c2cccc3nc(Nc4ccc(C(F)(F)F)cc4)nn23)C1 , and I need its recorded pIC50. 6.00 to 6.30

I have this compound here, O=C1NCCc2cc(Nc3nc4cccc(N[C@H]5CC[C@@H](O)CC5)n4n3)ccc21 , and I need its recorded pIC50. 6.60 to 11.30

I have this compound here, CNC(=O)c1ccc(Nc2nc3cccc(N[C@H]4CC[C@@H](O)CC4)n3n2)cc1 , and I need its recorded pIC50. 6.00 to 6.30

I have this compound here, OC1CCN(Cc2cccc3nc(Nc4ccc(C(F)(F)F)cc4)nn23)CC1 , and I need its recorded pIC50. 5.00 to 6.00
